B1: ZNF263 (parent)
chain: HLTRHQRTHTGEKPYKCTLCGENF

- Variants of: B1
- Protocol summary: protein stability index of a GFP-peptide fusion (GPS, HEK-293T) (PSI 1-6); higher = more stable;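 also: lentivirally expressed fusions sorted by FACS into six bins by GFP to DsRed ratio, PSI derived from sequencing read proportions per bin multiplied by bin number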
- Run parameters: c terminus: a fixed tail appended
Note to self: values exactly at 3 are MET. So protein stability index at or above 3 is MET, below is NOT MET.

Mutation	Class label
T10E	MET
R4Q	MET
K13F	NOT MET
R7F	NOT MET
G21R	NOT MET

## Input Check if protein stability index >= 3 (inclusive). Item: `Y15S`
## Output MET

## Input Check if protein stability index >= 3 (inclusive). Item: `H9K`
## Output MET

## Input Check if protein stability index >= 3 (inclusive). Item: `T8G`
## Output NOT MET

## Input Check if protein stability index >= 3 (inclusive). Item: `F24H`
## Output MET
